Data provenance is the supplement of paper PMC9170038.

The entries below come with measured apparent KD of MS2 coat protein values attached.
System: MS2 coat protein
Method description: apparent KD of MS2 coat protein; higher = weaker reporter binding
Stated conditions: Eterna round: R107; input ligand: tryptophan 2.4 mM

Sequence	apparent KD of MS2 coat protein
AUUUUCGUAGGUUAAAGUUUAGAAACUGAAGGAGCGUGGUAUUACACAGGUAGGUCGCAGAUUUUACAUGAGGAUCACCCAUGUU [JR_ExcArginiA_Sub011]	17.7 nM
AUAGUCUAGAGUGAUACCAGACUACAUGAGGAUCACCCAUGUAUCUUUUGGUUAUCAUGUGUCCCUUGGCAGCACGCAUGUAUAG [JR_ExcTheophyB_Sub013]	9.94 nM
AGCGACAUGCGUGAUACCAGCUACAUGAGGAUCACCCAUGUACGUCAGAAAUGACUGUGUAGCCCUUGGCAGCAUAAUGCAUGUC [Exclusion - Theophylline B (Freestyle 19)]	44 nM
UUUUUCGCGGGUGAUACCAGCAGAGUUGUACUGGUCUGGUACAUGAGGAUCACCCAUGUUUGCCCUUGGCAGCGCUCGGGAGAAG [#23 Exclusion-TheophyllineB]	24.1 nM
GACCGAUUAUAGCACGAUUGUCUUGUGGAAGGAGCGCAGAGGGCUGCAGGUAGGUCGCCACAUGAGGAUCACCCAUGUCAGGAUA [Raanti]	46.6 nM
UUCUUUAAGUCGGCCGCCACUGAAACAUGAGGAUCACCCAUGUAUAUUUGUGUAUAGGUGGAUUACAGGACCGGGACUAUAGUAA [JR_ExcTryptoB_Sub023]	14.7 nM
AAUAAGUACUUUGAUACCAGCCUGCCAUCAUGCUAAUUUACAUGAGGAUCACCCAUGUUAGGCCCUUGGCAGCAAAGUGCAAUAA [XTheo B #1]	12.4 nM
GCUUGGGUCGCAAGGCCCUGGCGUUGCGAUACCAGCACGGUAACGUGCCCUUGGCAGCGCACAUGAGGAUCACCCAUGUGGUGCG [#1 Exclusion - Theophylline A Attempt #22 (HarryS)]	17.4 nM
UAAAACAUGAGGAUCACCCAUGUAAAUGAUACCAGAGUGAUGAUCCUCCCUUGGCAGCAUAACGCUGAUUGAUUACAAUCAGCGA [Mat - Same State Theophlline A - Mod of Eli - D22]	58.3 nM
UGUAUGGACUGAAGGAGCGGGAAAUAAACCUGAGGAACACCCAGGUAAUAGGCGAAAGCCACCCAGGUAGGUCGCAGUCCAUACU	18.8 nM
GCGCGCGCCGAAAGGCGCGCGUGUUGCGAUACCAGCCCGGAAACGGGCCCUUGGCAGCGCACAUGAGGAUCACCCAUGUCAUGUU [Exclusion - Theophylline A Attempt #1 (HarryS)]	21.9 nM
UACAUGAGGAUCACCCAUGUGUAGAGGGAUACCAGUGACAGUAAGCGCCCUUGGCAGCCCGUGAACAAUGGGUGAGCUAAAUAGU [#18 Exclusion-TheophyllineA]	57.4 nM
UGUAUGUGAACUGAUACCAGACCUCAAUCUUGAGGAUCACCCAAGGAGGACGAAAGUCCGGUCCCUUGGCAGCAGUUCACAUACU [ThBS - Unstable 2]	1390 nM
ACAUGAGGAUCACCCAUGUGUCCUCGAAAACGAGGACCGGUACGGCCGCCACUCGAAAUAAGCUGUUGACGAAAAGUCAGCAGCA [Mat - Exclusion - Trytophan A - D21]	316 nM
CACAUGAGGAUCACCCAUGUCUGAACUGAAGGAGCGCUAAACAAGGCAGGUAGGUCGCGGAAUUUUGUGUGCAUAUGCACAUGGG [9.O]	25.8 nM
UGUAUGGACUGAAGGAGCGGGAAAUAAACCUGAGGAUCACCCAGGUAAUAGGCGAAAGCCACCCAGGUAGGUCGCAGUCCAUACU	10.6 nM
UUAGAUAUGACGGAUACCAGCGUGUUGUAGAACAUGAGGAUCACCCAUGUAGUGAUCGAGCGCCCUUGGCAGCUGGUAUGUUUGG [7.T]	335 nM
ACGCUGAUUGAUUACAAUCAGCGAAAAGAUACCAGUGGGUAAUCCCACCCUUGGCAGCUUAAAUAUGAGGAUCACCCAUAUGGUA [TheoAS 18 #MS2Right #BothOrNeither #AlternativeMS2]	86.1 nM
UGUAUGGACUGAAGGAGCGGAAGAUAACCUGAGGAUCACCCGGGUAAUAAGGCGAAAGCCUUCCAGGUAGGUCGCAGUCCAUACU	250 nM
GUUGGUUUGCGAAGGAGCGGGUAUGUUUUCUACUGGAUCCUAACAUGAGGAUCACCCAUGUCCCAGGUAGGUCGCGCGGGCUUUG [12.aA]	45.8 nM
UUGAACAUGAGGAUCACCCAUGUGGAUGAUACCAGCUAAAACAUAAGCCCUUGGCAGCAUUAAAAUGAAAUAUCGAAAAGGAAAG [theeternabot_sameState_MS2_Theo_A_1]	127 nM
UAUAUAUUGAUGGAUACCAGCAGAGAAAACGUUUAUCCUAACAUGAGGAUCACCCAUGUAUGCCCUUGGCAGCUGUUGAUAUAUA [8.K]	18.4 nM
CGGUUUGUGAUGGAUACCAGCAGAGUGACUGUUUAUCCUGACAUGAGGAUCACCCAUGUGUGCCCUUGGCAGCUGUUGUGGGCUG [8.aA]	65.7 nM
